- target-desc: herpes simplex virus type 2 (HSV-2) thymidine kinase (Human herpesvirus 2, UniProt P89446)
- Sequence (P89446 whole entry): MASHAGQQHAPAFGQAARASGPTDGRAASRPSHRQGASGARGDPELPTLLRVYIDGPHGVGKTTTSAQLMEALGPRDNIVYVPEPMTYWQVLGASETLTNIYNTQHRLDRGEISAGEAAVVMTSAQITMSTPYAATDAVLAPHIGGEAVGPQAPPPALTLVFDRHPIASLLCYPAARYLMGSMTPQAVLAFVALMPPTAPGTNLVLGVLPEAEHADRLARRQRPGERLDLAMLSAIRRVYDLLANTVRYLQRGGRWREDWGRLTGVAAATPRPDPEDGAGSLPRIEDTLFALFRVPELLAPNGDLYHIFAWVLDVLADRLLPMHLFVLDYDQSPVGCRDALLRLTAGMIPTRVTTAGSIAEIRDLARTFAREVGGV
pIC50: −log10 of the molar value.
In this section we review reported pIC50 values for a set of molecules.
reported-metric: pIC50

- input-smiles: "CCc1cn([C@H]2C[C@H](O)[C@@H](CNCc3c(Cl)cccc3Cl)O2)c(=O)[nH]c1=O"
  target-desc: "herpes simplex virus type 2 (HSV-2) thymidine kinase (Human herpesvirus 2, UniProt P89446)"
  reported-metric: "pIC50"
  observed-measurement: 7.10
- input-smiles: "CCc1cn([C@H]2C[C@H](O)[C@@H](CNCCc3c(Cl)cccc3Cl)O2)c(=O)[nH]c1=O"
  target-desc: "herpes simplex virus type 2 (HSV-2) thymidine kinase (Human herpesvirus 2, UniProt P89446)"
  reported-metric: "pIC50"
  observed-measurement: 7.05
- input-smiles: "CCc1cn([C@H]2C[C@H](O)[C@@H](CNCc3cccc(Cl)c3Cl)O2)c(=O)[nH]c1=O"
  target-desc: "herpes simplex virus type 2 (HSV-2) thymidine kinase (Human herpesvirus 2, UniProt P89446)"
  reported-metric: "pIC50"
  observed-measurement: 7.22
